System: serotonin transporter (SERT) (Rattus norvegicus (Rat))
Sequence (P31652 whole entry): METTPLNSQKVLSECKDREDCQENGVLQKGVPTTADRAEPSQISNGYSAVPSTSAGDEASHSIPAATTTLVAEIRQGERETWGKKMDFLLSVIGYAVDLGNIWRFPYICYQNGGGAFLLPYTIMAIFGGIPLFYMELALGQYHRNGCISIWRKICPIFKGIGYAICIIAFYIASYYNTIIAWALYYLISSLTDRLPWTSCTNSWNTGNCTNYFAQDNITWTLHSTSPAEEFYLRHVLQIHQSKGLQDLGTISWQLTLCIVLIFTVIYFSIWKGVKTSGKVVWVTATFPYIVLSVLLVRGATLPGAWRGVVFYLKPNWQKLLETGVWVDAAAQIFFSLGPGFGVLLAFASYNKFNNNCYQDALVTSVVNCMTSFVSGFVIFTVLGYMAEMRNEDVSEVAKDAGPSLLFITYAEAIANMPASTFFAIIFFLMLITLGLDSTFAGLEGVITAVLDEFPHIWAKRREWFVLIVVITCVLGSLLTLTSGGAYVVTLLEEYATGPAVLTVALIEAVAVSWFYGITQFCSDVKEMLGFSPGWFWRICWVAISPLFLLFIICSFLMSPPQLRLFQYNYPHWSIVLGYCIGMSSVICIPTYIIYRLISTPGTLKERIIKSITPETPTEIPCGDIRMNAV
Conditions: read-out: SERT Ki ± SEM; rat brain membranes; Table 5 piperazinyl derivatives
pKi: −log10 of the molar value.
So basically every entry gets a class from its pKi, ranges being class 1: < 5; class 2: ≥ 5 and < 6; class 3: ≥ 6

For orientation, consider the following solved cases.
CC(O)CN1CCN(CC[S+]([O-])C(c2ccc(F)cc2)c2ccc(F)cc2)CC1 (racemic) [Compound 10d]
class 1
[O-][S+](CCN1CCN(CC(O)Cc2ccccc2)CC1)C(c1ccc(F)cc1)c1ccc(F)cc1 (racemic) [Compound 10j]
class 2
[O-][S+](CCN1CCN(CC(O)Cc2ccccc2)CC1)C(c1ccccc1)c1ccccc1 (racemic) [Compound 10g]
class 1
O=C(C[S+]([O-])C(c1ccccc1)c1ccccc1)N1CCN(CCCc2ccccc2)CC1 (stereo not shown) [Compound 12a]
class 1
CC(O)CN1CCN(CCSC(c2ccccc2)c2ccccc2)CC1 (racemic)
class 1
Fc1ccc(C(SCCN2CCN(CCCc3ccccc3)CC2)c2ccc(F)cc2)cc1
class 3
CC(O)CN1CCN(CCSC(c2ccc(F)cc2)c2ccc(F)cc2)CC1 (racemic)
class 2

Now turn to the next compound.
Lookup: Which class holds OC(Cc1ccccc1)CN1CCN(CCSC(c2ccc(F)cc2)c2ccc(F)cc2)CC1 (racemic) ?
Found: class 3

====

System: serotonin transporter (SERT) (Rattus norvegicus (Rat))
Conditions: read-out: SERT Ki; rat brain membranes; Table 5, bound in M
pKi: −log10 of the molar value.
Assay Metric: pKi

Lookup: Consider the molecule CC(O)CN1CCN(CC[S+]([O-])C(c2ccccc2)c2ccccc2)CC1 (racemic) [Compound 10a] and give its measured pKi.
Found: < 4.00

====

Assay Summary: Brain concentrations in mice after IV and PO dosing at 10 mg/kg
Conditions: male, CD1, mouse, in vivo, iv, 10 mg/kg
Assay Metric: concentration at 0.5 h (ng/g)
One number for each entry, in ng/g.

Lookup: Consider the compound "Fc1ccc(C(SCCNCCCc2ccccc2)c2ccc(F)cc2)cc1" and give its measured concentration at 0.5 h.
Found: 4780

====

Assay Summary: Plasma pharmacokinetics in mice, 10 mg/kg i.v. and p.o.
Conditions: male, CD1, mouse, in vivo, 10 mg/kg, F % (absolute bioavailability), mouse, 10 mg/kg P.O. versus I.V.
Assay Metric: bioavailability

Lookup: Consider the molecule "Fc1ccc(C(SCCNCCCc2ccccc2)c2ccc(F)cc2)cc1" and give its measured bioavailability.
Found: ~10%

====

Assay Summary: Brain concentrations in mice after IV and PO dosing at 10 mg/kg
Conditions: male, CD1, mouse, in vivo, po, 10 mg/kg
Assay Metric: concentration at 2 h (ng/g)
Give bare numbers, in ng/g.

Lookup: Consider the compound "Fc1ccc(C(SCCNCCCc2ccccc2)c2ccc(F)cc2)cc1" and give its measured concentration at 2 h.
Found: 223

====

So I've got a bunch of compounds here, and I need their Ki values.
System: dopamine transporter (DAT) (Rattus norvegicus (Rat), UniProt P23977)
Sequence (P23977 whole entry): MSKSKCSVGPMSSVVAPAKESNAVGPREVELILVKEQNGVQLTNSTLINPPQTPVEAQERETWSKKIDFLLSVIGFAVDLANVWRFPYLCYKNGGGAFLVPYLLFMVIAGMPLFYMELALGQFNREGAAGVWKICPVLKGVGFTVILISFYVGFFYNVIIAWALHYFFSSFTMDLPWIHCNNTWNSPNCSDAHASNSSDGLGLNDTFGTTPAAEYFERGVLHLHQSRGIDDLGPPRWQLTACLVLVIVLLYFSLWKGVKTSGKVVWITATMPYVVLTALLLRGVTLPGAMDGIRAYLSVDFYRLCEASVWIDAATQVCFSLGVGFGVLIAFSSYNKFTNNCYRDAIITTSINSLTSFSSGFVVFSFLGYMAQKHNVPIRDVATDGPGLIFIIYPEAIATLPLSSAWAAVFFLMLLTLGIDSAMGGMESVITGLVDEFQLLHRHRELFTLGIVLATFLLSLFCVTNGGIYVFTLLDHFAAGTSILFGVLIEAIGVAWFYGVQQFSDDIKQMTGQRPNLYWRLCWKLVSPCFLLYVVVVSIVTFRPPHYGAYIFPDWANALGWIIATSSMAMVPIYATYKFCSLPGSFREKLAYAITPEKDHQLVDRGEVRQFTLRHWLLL
Assay Summary: Dopamine Transporter Binding Assay ([3H]WIN 35428, rat striatal membranes)
Conditions: rat brain membranes; Table 2 thioethanamines and sulfinylethanamines; read-out: Ki (nM) ± S.E.M. DAT
Hi, when you answer, please include the unit after the number. Thanks!

Would you mind giving Ki for every compound in the list below?
1. [O-][S+](CCNCCCc1ccccc1)C(c1ccc(Br)cc1)c1ccc(Br)cc1 (stereo not drawn) [Compound 5e]
2. c1ccc(CCCNCCSC(c2ccccc2)c2ccccc2)cc1 [Compound 4f]
3. [O-][S+](CCNCCCc1ccccc1)C(c1ccc(F)cc1)c1ccc(F)cc1 (stereo not drawn) [Compound 5c]

Found:
1: 1290 nM; 2: 297 nM; 3: 200 nM

Would you mind giving Ki for every compound in the list below?
1. CCCCNCC[S+]([O-])C(c1ccccc1)c1ccccc1 (stereo not drawn) [Compound 5b]
2. CCCCNCCSC(c1ccccc1)c1ccccc1 [Compound 4e, N-(2-(benzhydrylthio)ethyl)butan-1-amine]
3. [O-][S+](CCNCCCc1ccccc1)C(c1ccc(Cl)cc1)c1ccc(Cl)cc1 (stereo not drawn) [Compound 5d]

Found:
["1580 nM", "315 nM", "660 nM"]

====

Assay Summary: Plasma pharmacokinetics in mice, 10 mg/kg i.v. and p.o.
Conditions: male, CD1, mouse, in vivo, iv, 10 mg/kg
Assay Metric: AUC(0-t) (ng·h/mL)
Give bare numbers, in ng·h/mL.

Lookup: Consider the molecule "Fc1ccc(C(SCCNCCCc2ccccc2)c2ccc(F)cc2)cc1" and give its measured AUC(0-t).
Found: 1960

====

System: Sigma 1 (Homo sapiens (Human))
Sequence (Q99720 whole entry): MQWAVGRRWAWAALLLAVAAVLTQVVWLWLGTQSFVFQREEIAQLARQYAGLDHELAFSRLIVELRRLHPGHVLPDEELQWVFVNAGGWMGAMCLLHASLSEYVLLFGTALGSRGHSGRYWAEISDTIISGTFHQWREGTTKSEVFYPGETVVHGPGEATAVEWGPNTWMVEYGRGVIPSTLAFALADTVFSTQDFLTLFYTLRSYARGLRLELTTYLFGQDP
Assay Summary: Sigma 1 binding affinity (Table 5)
Assay Metric: Ki (nM)
One number for each entry, in nM.

// worked examples, Ki included
O=C(CSC(c1ccccc1)c1ccccc1)N1CCN(CCCc2ccccc2)CC1 [Compound 11a]
1120
CC(O)CN1CCN(CCSC(c2ccccc2)c2ccccc2)CC1 (racemic)
0.94
[O-][S+](CCN1CCN(CC(O)Cc2ccccc2)CC1)C(c1ccc(F)cc1)c1ccc(F)cc1 (racemic) [Compound 10j]
336
OC(Cc1ccccc1)CN1CCN(CCSC(c2ccc(F)cc2)c2ccc(F)cc2)CC1 (racemic)
95.4
c1ccc(CCCN2CCN(CCSC(c3ccccc3)c3ccccc3)CC2)cc1
19.9

Would you mind giving Ki for every compound in the list below?
1. [O-][S+](CCN1CCN(CCCc2ccccc2)CC1)C(c1ccccc1)c1ccccc1 (stereo not shown)
2. Fc1ccc(C(SCCN2CCN(CCCc3ccccc3)CC2)c2ccc(F)cc2)cc1

Found:
1: 116; 2: 59.5

====

Assay Summary: Plasma pharmacokinetics in mice, 10 mg/kg i.v. and p.o.
Conditions: male, CD1, mouse, in vivo, po, 10 mg/kg
Protocol: Plasma was harvested from blood by centrifugation. Additionally at two selected time points (i.e. 30 min and 2 h) brains were collected following both oral and IV dosing. Samples were extracted from plasma by a single one-step protein precipitation method (as described in bioanalysis section below). […] Once extracted, the samples were analyzed via LC/MS/MS (as described in bioanalysis section below). […]
Assay Metric: Tmax (min)
Numbers only, in min.

Lookup: Consider the molecule "Fc1ccc(C(SCCNCCCc2ccccc2)c2ccc(F)cc2)cc1" and give its measured Tmax.
Found: 30

====

System: serotonin transporter (SERT) (Rattus norvegicus (Rat))
Conditions: read-out: Ki (nM) ± S.E.M. SERT; rat brain membranes; Table 2 thioethanamines and sulfinylethanamines
Threshold 3000 nM. Ki below it: criterion met. Ki at it or above: criterion not met.

For orientation, consider the following solved cases.
[O-][S+](CCNCCCc1ccccc1)C(c1ccc(Cl)cc1)c1ccc(Cl)cc1 (centres unmarked)
criterion met
NCC[S+]([O-])C(c1ccccc1)c1ccccc1 (centres unmarked) [Compound 5a, 2-(Benzhydrylsulfinyl)ethan-1-amine]
criterion not met
c1ccc(C(SCCNCC2CC2)c2ccccc2)cc1
criterion not met
Brc1ccc(C(SCCNCCCc2ccccc2)c2ccc(Br)cc2)cc1
criterion met

Lookup: Given [O-][S+](CCNCCCc1ccccc1)C(c1ccc(F)cc1)c1ccc(F)cc1 (centres unmarked) , is recorded Ki strictly lower than 3000 nM?
Found: criterion met

Lookup: Given [O-][S+](CCNCCCc1ccccc1)C(c1ccccc1)c1ccccc1 (centres unmarked) [Compound 200, reference compound] , is recorded Ki strictly lower than 3000 nM?
Found: criterion met

Lookup: Given NCCSC(c1ccccc1)c1ccccc1 [Compound 4a, 2-(benzhydrylthio)ethan-1-amine] , is recorded Ki strictly lower than 3000 nM?
Found: criterion met

Lookup: Given [O-][S+](CCNCCCc1ccccc1)C(c1ccc(Br)cc1)c1ccc(Br)cc1 (centres unmarked) , is recorded Ki strictly lower than 3000 nM?
Found: criterion met

Lookup: Given CCCCNCC[S+]([O-])C(c1ccccc1)c1ccccc1 (centres unmarked) , is recorded Ki strictly lower than 3000 nM?
Found: criterion not met

Lookup: Given "c1ccc(CCCNCCSC(c2ccccc2)c2ccccc2)cc1" , is recorded Ki strictly lower than 3000 nM?
Found: criterion met

Lookup: Given CCCCNCCSC(c1ccccc1)c1ccccc1 [Compound 4e, N-(2-(benzhydrylthio)ethyl)butan-1-amine] , is recorded Ki strictly lower than 3000 nM?
Found: criterion not met

====

System: dopamine transporter (DAT) (Rattus norvegicus (Rat), UniProt P23977)
Assay Summary: Dopamine Transporter Binding Assay ([3H]WIN 35428, rat striatal membranes)
Conditions: rat brain membranes; Table 1 thioacetamides and sulfinylacetamides; read-out: Ki (nM) ± S.E.M. DAT
Assay Metric: Ki (nM)
Give bare numbers, in nM.

// worked examples, Ki included
O=C(CSC(c1ccc(Br)cc1)c1ccc(Br)cc1)NCCCc1ccccc1 [Compound 2x]
244
CNC(=O)CSC(c1ccccc1)c1ccccc1 [Compound 2g, 2-(Benzhydrylthio)-N-methylacetamide]
19400
Cc1ccc(C(c2ccc(C)cc2)[S+]([O-])CC(N)=O)cc1 (centres unmarked) [Compound 3a, 2-((Di-p-tolylmethyl)sulfinyl)acetamide]
12700
C=CCNC(=O)CSC(c1ccccc1)c1ccccc1 [Compound 2j, N-Allyl-2-(benzhydrylthio)acetamide]
9190

// next item, Ki requested
Lookup: Consider the compound O=C(CSC(c1ccc(F)cc1)c1ccc(F)cc1)NCC1CC1 [Compound 2p] and give its measured Ki.
Found: 6860
